Test system: MOLT-4 leukemia
Assay: NCI tumour cell line growth inhibition, 48 h
measurement_name: TGI

Guide cases for TGI, answers given:
compound	measured_target	TGI
O=C(c1ccco1)c1nc2ccc(Cl)cc2[n+]([O-])c1C(F)(F)F	MOLT-4 leukemia	> 100 µM
COc1cccc(C2=C(c3cn(C)c4ccc(Cl)cc34)C(=O)NC2=O)c1	MOLT-4 leukemia	> 18.8 µM
O=c1n(-c2ccc(Cl)c(Cl)c2)c(=O)n(-c2ccc(Cl)c(Cl)c2)c(=O)n1-c1ccc(Cl)c(Cl)c1	MOLT-4 leukemia	4.6 µM
O=S(=O)(c1ccc(Cl)cc1)c1ccccc1C1=NCCN1	MOLT-4 leukemia	> 100 µM
COc1ccc(/C=C2/SC(c3ccc(Cl)cc3)N(NC(=O)CCCCCCCCC(=O)NN3C(=O)/C(=C\c4ccc(OC)c(OC)c4)SC3c3ccc(Cl)cc3)C2=O)cc1OC (centres undefined)	MOLT-4 leukemia	> 100 µM

Lab note: each compound below needs its TGI filled in.
1. Nc1nccc2c1ncn2[C@H]1C[C@H](O)[C@@H](CO)O1
2. O=[N+]([O-])c1ccc2c(c1)c1nn2CCCCOc2nn(c3ccc([N+](=O)[O-])cc23)CCCCO1
3. COc1cc2c(/C=C3/C(=O)Nc4c3ccc3ccccc43)c(Cl)n(C)c2cc1C
4. CCOC(=O)[C@H]1O[C@@H]1C(=O)NC(CC(C)C)C(=O)NCCC(C)C (some centres undefined)

1: > 100 µM; 2: > 100 µM; 3: 17.3 µM; 4: > 100 µM
